Target: Protein arginine N-methyltransferase 1 (Homo sapiens, UniProt Q99873)
Assay: Inhibition of human recombinant PRMT1-mediated arginine methylation at 50 uM using nonhistone protein Npl3 substrate by ELISA
Sequence (Q99873 whole entry, looked up): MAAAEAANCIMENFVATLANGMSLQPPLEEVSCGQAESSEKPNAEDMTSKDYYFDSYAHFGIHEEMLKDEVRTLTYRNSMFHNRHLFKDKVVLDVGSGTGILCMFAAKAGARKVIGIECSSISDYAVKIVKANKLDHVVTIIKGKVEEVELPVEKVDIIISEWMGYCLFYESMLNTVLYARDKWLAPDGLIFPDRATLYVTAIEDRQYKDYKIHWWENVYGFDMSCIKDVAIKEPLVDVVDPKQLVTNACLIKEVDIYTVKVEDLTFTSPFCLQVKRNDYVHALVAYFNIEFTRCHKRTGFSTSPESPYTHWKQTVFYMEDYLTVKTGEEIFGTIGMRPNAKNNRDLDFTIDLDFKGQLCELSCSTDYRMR
measured.property: inhibition (%)

See these solved cases before continuing.
Nc1ccc(C(=O)NCc2ccccc2)cc1; 47
CC(NC(=O)c1ccc(N)cc1)c1ccccc1 (stereo not drawn); 34
O=C(Nc1ccc(S(=O)(=O)NCCc2ccccc2)cc1)c1ccc(-c2ccccc2)cc1; 42
O=C(Cc1ccccc1)Nc1ccc(S(=O)(=O)NCCc2ccccc2)cc1; 10
CCC(=O)Nc1ccc(S(=O)(=O)c2ccc(N)cc2)cc1; 70.6

I = CC(NS(=O)(=O)c1ccc(N)cc1)c1ccccc1 (stereo not drawn)
II = Nc1ccc(S(=O)(=O)c2ccc(NC(=O)NCc3ccccc3)cc2)cc1
q: Between the entries labelled I and II , which has a larger inhibition value on record? Indicate which entry you chose by stating its label.
a: I

----------
Molecular target: Histone-lysine N-methyltransferase SETD7 (Homo sapiens)
Assay: Inhibition of methyl transferase activity of SET7/9 at 50 uM using biotinylated histone H3(1-21) substrate by In-vitro time resolved fluorescence immunosorbent methyltransferase assay
measured.property: inhibition (%)

1 = O=S(=O)(NCCc1ccccc1)c1ccc(NS(=O)(=O)c2ccc(Cl)cc2)cc1
2 = O=C(Cc1ccccc1)Nc1ccc(S(=O)(=O)c2ccc(NC(=O)Cc3ccccc3)cc2)cc1
q: Name the one with the greater inhibition value, either 1 or 2 as given. Indicate which entry you chose by stating its label.
a: 1
(1: 58%, 2: 31%)

1 = Nc1ccc(S(=O)(=O)NCc2ccccn2)cc1
2 = O=C(Nc1ccc(S(=O)(=O)NCCc2ccccc2)cc1)c1ccc(Cl)c(Cl)c1
q: For the pair 1 and 2 , which member has the lower inhibition number? # answer = label of selected item
a: 1
(1: 14%, 2: 37%)

----------
Target: Protein arginine N-methyltransferase 1 (Homo sapiens, UniProt Q99873)
Experiment: Inhibition of human recombinant PRMT1-mediated arginine methylation at 50 uM using nonhistone protein Npl3 substrate by ELISA
measured.property: inhibition (%)

P = O=C(Nc1ccc(S(=O)(=O)NCCc2ccccc2)cc1)c1ccc(Br)cc1
Q = COc1ccc(CNS(=O)(=O)c2ccc(N)cc2)cc1
q: Please tell me which of the two, P or Q , has the higher reported inhibition value. In your reply, give the label of the chosen option.
a: P
(P: 41%, Q: 19%)

P = CCCC(=O)Nc1ccc(S(=O)(=O)c2ccc(NC(=O)CCC)cc2)cc1
Q = O=C(Nc1ccc(S(=O)(=O)NCCc2ccccc2)cc1)c1ccccc1
q: Hi there, can you help? I need to know whether P or Q has lower measured inhibition. // return label of chosen record
a: Q
(Q: 20%, P: 44.1%)

----------
Biological target: UniProt:Q99873
Assay: Inhibition of human recombinant PRMT1-mediated arginine methylation using nonhistone protein Npl3 substrate by ELISA
Sequence (Q99873 whole entry): as the sequence (Q99873 whole entry, looked up) above
measured.property: IC50 (µM)

Nc1ccc(S(=O)(=O)NCc2ccccn2)cc1; 70.7

I = O=S(=O)(NCCc1ccccc1)c1ccc(NS(=O)(=O)c2ccc(Cl)cc2)cc1
II = O=C(CCl)Nc1ccc(S(=O)(=O)c2ccc(NC(=O)CCl)cc2)cc1
q: Could you kindly indicate whether I or II has the higher IC50 value? To answer, give the label that identifies your chosen option.
a: I
(I: 5 µM, II: 1.5 µM)
